Source listed as paper PMC6272669.

# study-system: PTP1B (human, recombinant) (Homo sapiens, UniProt P18031)
# Sequence (P18031 whole entry): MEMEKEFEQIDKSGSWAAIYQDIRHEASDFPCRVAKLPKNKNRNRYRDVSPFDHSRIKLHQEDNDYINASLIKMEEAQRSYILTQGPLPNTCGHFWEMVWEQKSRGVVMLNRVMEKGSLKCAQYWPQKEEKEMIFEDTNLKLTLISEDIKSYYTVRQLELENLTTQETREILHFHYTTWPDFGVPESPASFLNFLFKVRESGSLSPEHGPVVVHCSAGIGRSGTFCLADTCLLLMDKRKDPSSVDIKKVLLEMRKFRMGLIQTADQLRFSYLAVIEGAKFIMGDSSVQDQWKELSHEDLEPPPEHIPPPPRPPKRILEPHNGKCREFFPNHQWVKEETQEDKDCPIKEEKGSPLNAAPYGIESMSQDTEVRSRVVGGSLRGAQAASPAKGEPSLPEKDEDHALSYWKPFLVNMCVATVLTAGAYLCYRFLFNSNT
# assay-info: PTP1B inhibitory activity assay (p-NPP hydrolysis)
# particulars: 1 mM p-NPP substrate, pH 6.0, 37.5 °C, 30 min; mean ± SD of triplicate experiments; read-out: PTP1B Inhibitory Effects (IC50 Values)
outcome-measure: IC50 (µM)

(P) CC(C)=CCc1c(O)c(O)cc2c(=O)c3c(O)c4c(cc3oc12)OC(C)C4(C)C (stereo not drawn)
(Q) CC(C)=CCc1c(-c2ccc(O)cc2O)oc2c(CC=C(C)C)c(O)cc(O)c2c1=O
**Query** Pick one, P or Q : lowest reported IC50. Returns: label corresponding to the selected item.
**Result** P
(P: 3.5 µM, Q: 13.6 µM)

(a) CC(C)=CCc1c(O)cc2oc(-c3ccc(O)cc3O)c(CC=C(C)C)c(=O)c2c1O
(b) C=CC(C)(C)c1c(O)cc(O)c2c(=O)c3c(CC=C(C)C)c(O)c(O)cc3oc12
**Query** Pick one, a or b : lowest reported IC50. Returns: label corresponding to the selected item.
**Result** b

(P) C=CC(C)(C)c1c(OC)c(CC=C(C)C)c2oc3cc(O)c(O)cc3c(=O)c2c1O
(Q) C=CC(C)(C)c1c(O)c(CC=C(C)C)c2oc3cc(O)c(O)cc3c(=O)c2c1O
**Query** Pick one, P or Q : lowest reported IC50. Returns: label corresponding to the selected item.
**Result** P
(P: 1.9 µM, Q: 3.8 µM)

* * *

# study-system: PTP1B (human, recombinant) (Homo sapiens)
# assay-info: PTP1B inhibitory activity assay (p-NPP hydrolysis)
# particulars: 1 mM p-NPP substrate, pH 6.0, 37.5 °C, 30 min; mean ± SD of triplicate experiments; read-out: PTP1B Inhibitory Effects (IC50 Values)
outcome-measure: IC50 (µM)

Example entries and their recorded answers appear below.
compound="CC(C)=CCc1c2c(c(O)c3c(=O)c4cc(O)c(O)cc4oc13)C(C)(C)C(C)O2 (stereo not shown)" study_system="PTP1B (human, recombinant) (Homo sapiens)" outcome_measure=IC50 unit_annotation=µM val=2.8
compound=C=CC(C)(C)c1c(OC)cc2oc3cc(O)c(O)cc3c(=O)c2c1O study_system="PTP1B (human, recombinant) (Homo sapiens)" outcome_measure=IC50 unit_annotation=µM val=3

(A) C=CC(C)(C)c1c(O)cc2oc3c(CC=C(C)C)c(O)c(O)cc3c(=O)c2c1O
(B) C=CC(C)(C)c1c(O)cc(O)c2c(=O)c3cc(O)c(O)cc3oc12
**Query** Would you let me know which has the greater IC50 value, A or B ? Returns: label corresponding to the selected item.
**Result** A
(A: 4.6 µM, B: 3 µM)

* * *

# study-system: PTP1B (human, recombinant) (Homo sapiens, UniProt P18031)
# assay-info: PTP1B inhibitory activity assay (p-NPP hydrolysis)
# particulars: 1 mM p-NPP substrate, pH 6.0, 37.5 °C, 30 min; mean ± SD of triplicate experiments; read-out: PTP1B Inhibitory Effects (IC50 Values)
outcome-measure: IC50 (µM)

compound="CC(C)=CCc1c(O)cc2c(c1O)C(=O)C[C@@H](c1cc3c(cc1O)OC(C)(C)C=C3)O2 [Compound 14, euchrestaflavanone C]" study_system="PTP1B (human, recombinant) (Homo sapiens, UniProt P18031)" outcome_measure=IC50 val=12.3

(a) C=CC(C)(C)c1c2c(c3oc4cc(O)c(O)cc4c(=O)c3c1O)C=CC(C)(C)O2 [Compound 1, cudratricusxanthone N]
(b) CC(C)=CCc1cc([C@@H]2CC(=O)c3c(cc(O)c(CC=C(C)C)c3O)O2)c(O)cc1O [Compound 13, cudraflavanone D]
**Query** Would you let me know which has the greater IC50 value, a or b ? Returns: label corresponding to the selected item.
**Result** b
